Biological target: Heat shock protein beta-1 (Homo sapiens) (UniProt P04792)
Sequence (P04792 whole entry): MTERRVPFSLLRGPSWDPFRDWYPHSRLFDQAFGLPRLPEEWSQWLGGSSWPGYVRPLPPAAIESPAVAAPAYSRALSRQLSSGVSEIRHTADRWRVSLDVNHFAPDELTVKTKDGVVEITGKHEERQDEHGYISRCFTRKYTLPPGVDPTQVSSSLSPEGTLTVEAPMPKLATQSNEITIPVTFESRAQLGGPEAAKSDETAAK
Experiment: Inhibition of heat shock protein 27 in human LNCaP cells assessed as decrease in AR protein level at 20 uM after 48 hrs by Western blot method
Format: cell-based
Activity calls are given as the source filed them. No cut-off for these calls is given here.
Hi! Could you answer with just one of these? y (active), n (inactive)

Examples with answers:
C=C1CC[C@@H]2C(C)(C)CCC[C@@]2(C)[C@@H]1CC/C(C)=C/C(=O)Nc1ccc(OC)cc1 : y
C=C1CC[C@@H]2C(C)(C)CCC[C@@]2(C)[C@@H]1CC/C(C)=C/C(=O)Nc1ccc(C)cc1 : y
C=C1CC[C@@H]2C(C)(C)CCC[C@@]2(C)[C@@H]1CC/C(C)=C/C(=O)Nc1ccc(I)cc1 : y
C=C1CC[C@@H]2C(C)(C)CCC[C@@]2(C)[C@@H]1CC/C(C)=C/C(=O)Nc1cccc(Br)c1 : y
C=C1CC[C@@H]2C(C)(C)CCC[C@@]2(C)[C@@H]1CC/C(C)=C/C(=O)O : n

Qu. Which outcome did this test record for the molecule `C=C1CC[C@@H]2C(C)(C)CCC[C@@]2(C)[C@@H]1CC/C(C)=C/C(=O)Nc1ccc(C#N)cc1` ?
Ans. y

Qu. Please do the same for `C=C1CC[C@@H]2C(C)(C)CCC[C@@]2(C)[C@@H]1CC/C(C)=C/C(=O)NCCc1ccccc1` as well.
Ans. y
